system: SF-295 CNS; assay: NCI tumour cell line growth inhibition, 48 h
Parameter: GI50. Scope: all listed entries.

Molecule	GI50
COc1ccc2c(c1)C(=O)c1c-2c(=O)n(CCCCCCC(=O)NO)c2ccccc12	0.733 µM
C=C1C(C(O)C[C@H](C)C2O[C@@]3(CCCCO3)CCC2C)O[C@@H]2CCC3(CCC(/C=C/[C@@H](C)C4CC(C)=CC5(O4)O[C@H](C[C@](C)(O)C(=O)O)CCC5O)O3)OC2[C@@H]1O (some centres undefined)	0.00748 µM
CC(C)=C[C@@H]1C[C@H](C)[C@H]2CC[C@H](C)c3c(O)c(OC4OCC(O)C(O)C4O)c(C)c1c32 (some centres undefined)	14.2 µM
CCN1CCN(Cc2ccc(NC(=O)c3nc4ccc5[nH]ncc5c4c4c3CCCC4)cc2C(F)(F)F)CC1	0.888 µM
CC(C)CC(=O)[O-].N.N.N.N.N.[Co+3].[O-][Cl+3]([O-])([O-])[O-]	> 100 µM

// next item, GI50 requested
### Prompt Which GI50 value is on record for `Nc1cc2ccccc2c(O)c1O` ?
### Response 15.7 µM

====

system: 786-0 renal; assay: NCI tumour cell line growth inhibition, 48 h
Parameter: TGI. Scope: all listed entries.

>>> print(df.to_string())
                            molecule_smiles  readout_label  obs_value
0            O=C1c2ccccc2C(=O)c2c1ccc(O)c2O            TGI   > 100 µM
1   Oc1ccc(Cl)cc1-c1cc(-c2ccc(Cl)cc2)n[nH]1            TGI    7.54 µM
2  CCOC(=O)c1c(SCCCN2CCCCC2)n(-c2ccccc2)c(=S)n(-c2ccccc2)c1=O            TGI    13.5 µM
3          COc1ccc(NC=O)c(C(=O)CCNC(C)=O)c1            TGI   > 100 µM
4  O=C1C(=C2SC(c3ccccc3)(c3ccccc3)c3ccccc32)C(=O)c2ccccc21            TGI   > 100 µM

// next item, TGI requested
### Prompt Hello, I am looking for reported TGI with 786-0 renal for `Cc1ccc(-c2cc(=S)n(-c3ccccc3)c3nc(=S)n(-c4ccccc4)c(N)c23)cc1` . Could you help?
### Response > 100 µM

====

Parameter: TGI. Scope: all listed entries.
system: SK-MEL-28 melanoma; assay: NCI tumour cell line growth inhibition, 48 h
Only the number, expressed in µM, is required.

Example results:
Compound	TGI, µM
Oc1cc(Cn2cnc3c(Cl)nc(Cl)nc32)ccc1C12CC3CC(CC(C3)C1)C2	31
CC(C)c1nc(Cl)nc(Cl)c1Cl	2.72
CN1CCN(Cc2ccc(NC(=O)c3cncc(C#Cc4cnc5ccc(Cl)nn45)c3)cc2C(F)(F)F)CC1	2.59
COc1ccc2nc3cc(Cl)ccc3c(N)c2c1	3.51
O=C(O)CCC(=O)N1C/C(=C\c2ccccc2)C(=O)/C(=C/c2ccccc2)C1	3.55

### Prompt Which TGI value is on record for `N=C(N)c1ccc(-c2ccc(-c3cccs3)o2)cc1` ?
### Response 3.11

### Prompt Note, next up: `CN(CCCN(C)Cc1ccc(Cl)c(Cl)c1)CCN1CCCC1`
### Response 4.6

### Prompt Note, next up: `Nc1cc2ccccc2c(O)c1O`
### Response 27.4

### Prompt Note, next up: `Cc1ccc2cc3cccc(C(=O)NCCN(C)C)c3nc2c1`
### Response 3.39

### Prompt Note, next up: Cc1c2cccc(Sc3ccccc3)c2c2c3c(cccc13)[S+](c1ccccc1)C2 (configuration not stated)
### Response 6.84

### Prompt Note, next up: `Cn1c2c(c3ccccc31)CCN(CCCN1CCN(c3cccc(Cl)c3)CC1)C2=O`
### Response 34.3

### Prompt Note, next up: `CCOC(=O)NC(C(F)(F)F)(C(F)(F)F)P(=O)(OCC(C)C)OCC(C)C`
### Response 54.2

### Prompt Note, next up: C1CCC(C(CC2CCCCN2)C2CCCCC2)CC1 (configuration not stated)
### Response 3.3

### Prompt Note, next up: COc1cc2c3c(c1OC)-c1ccccc1C(C(O)c1ccccc1)C3N(C)CC2 (configuration not stated)
### Response 41.6

### Prompt Note, next up: `NC(=O)c1ccc(NCC2=CC(=O)C=CC2=O)cc1`
### Response 36.9

### Prompt Note, next up: `Cc1n(Cc2ccc3ccccc3c2)c2ccccc2[n+]1Cc1ccc2ccccc2c1`
### Response 3.18

### Prompt Note, next up: `COC(=O)[C@]12CC[C@@H](C(=O)/C=C/c3cccnc3)[C@@H]1[C@H]1CC[C@@H]3[C@@]4(C)C/C(=C/c5cccnc5)C(=O)C(C)(C)[C@@H]4CC[C@@]3(C)[C@]1(C)CC2`
### Response 0.565

====

test system: M14 melanoma; test: NCI tumour cell line growth inhibition, 48 h
Readout Label: log10 TGI (log10 of the value in µM)
Base-10 log of TGI, unit µM.

Molecule	log10 TGI
CC/C=C/c1cc2c(c3[nH]ccc13)[C@@H](C)CC2C (stereo not given in full) (tested in a mixture with another compound)	1.47
COc1ccc2[nH]c(=O)c(/C=C/C(=O)c3ccccc3OC)cc2c1	0.15
Cc1nc2c(nc1C)C(=O)C1=C(C2=O)C2C=CC1CC2	1.44

### Prompt Which log10 TGI value is on record for `O=c1oc2ccccc2c(O)c1/C=N\c1nc(-c2ccc(O)c(O)c2)cs1` ?
### Response 1.01

### Prompt Note, next up: `CC(=O)O[C@H]1C(=O)[C@@]2(C)[C@H]([C@H](OC(=O)C3CCCCC3)[C@]3(O)C[C@H](OC(=O)[C@H](O)[C@@H](NC(=O)OC(C)(C)C)c4ccccc4)C(C)=C1C3(C)C)[C@]1(OC(C)=O)CO[C@@H]1C[C@@H]2O`
### Response -0.93

### Prompt Note, next up: `[O-][n+]1c2cc(CBr)c(CBr)cc2[n+]([O-])c2c(O)cccc21`
### Response 0.52

### Prompt Note, next up: `NC(=O)c1ccc(NCC2=CC(=O)C=CC2=O)cc1`
### Response 1.50

### Prompt Note, next up: `COc1ccc2c(c1)C(=O)c1c-2c(=O)n(CCCCCCC(=O)NO)c2ccccc12`
### Response 1.14

### Prompt Note, next up: Cc1c2cccc(Sc3ccccc3)c2c2c3c(cccc13)[S+](c1ccccc1)C2 (stereo not given)
### Response 0.83

### Prompt Note, next up: `CCN1CCN(Cc2ccc(NC(=O)c3nc4ccc5[nH]ncc5c4c4c3CCCC4)cc2C(F)(F)F)CC1`
### Response 0.26

### Prompt Note, next up: `O=C(Nc1ccc(Cl)cc1)/C(=C(/[O-])c1ccc(Br)cc1)[n+]1cccc(-c2ccc(Cl)cc2)n1`
### Response 1.27

====

Parameter: TGI. Scope: all listed entries.
tested on: RXF 393 renal; test: NCI tumour cell line growth inhibition, 48 h
Only the number, expressed in µM, is required.

Example results:
>>> print(df.to_string())
                            molecule_smiles  readout_label  obs_value
0  COc1cccc(-n2ncc3c(N/N=C/c4cccc(F)c4)ncnc32)c1            TGI       12.7
1  S=c1[nH]nc(C23CC4CC(CC(C4)C2)C3)n1-c1ccc(Cl)cc1            TGI       38.1

### Prompt Which TGI value is on record for `COC(=O)[C@]1(C)CCC[C@]2(C)[C@H]3CC[C@]4(C(C)C)OO[C@@H](O4)[C@]34O[C@@H]4C[C@H]21` ?
### Response 11.6

### Prompt Note, next up: `O=c1[nH]c2c3ccncc3cc(-c3cccc(Cl)c3)c2c2cnccc12`
### Response 52.3

====

system: OVCAR-3 ovarian; test: NCI tumour cell line growth inhibition, 48 h
Readout Label: TGI

Example results:
Compound	TGI
CC(=O)OCC12C(OC(C)=O)C(=O)C3C(OC(C)=O)C14OC3(C)COC(=O)c1cccnc1C(C)C(C)C(=O)OC(C(OC(C)=O)C2OC(C)=O)C4(C)O (stereo not given)	> 100 µM
N#Cc1c(N)c2c(c(-c3ccccc3)c1-c1ccccc1)C(=O)N(NC(=S)Nc1ccccc1)C2=O	> 100 µM
NC(CCCNCc1ccccc1)C(=O)O (stereo not given)	> 100 µM
Cc1ccc(-c2cc(-c3cc(-c4ccc(C)cc4C)n[nH]3)[nH]n2)c(C)c1	26.9 µM
CC1(C)C2CCC(=O)C1C(OCc1ccccc1)C2 (stereo not given)	> 100 µM
CCN(CC)c1c(C)c(C(=O)OC)nn1-c1ccccc1	> 100 µM
CC(=O)c1cccc(NC(=O)C(=O)C(C(=O)NN)c2ccccc2)c1 (stereo not given)	> 100 µM
COC(=O)CC(=O)OC	> 100 µM

### Prompt Which TGI value is on record for `C=C1C(=O)O[C@H]2[C@H]1CC/C(COC(=O)NCc1c[nH]c3ccc(Br)cc13)=C\CC[C@@]1(C)O[C@@H]21` ?
### Response 2.29 µM

### Prompt Note, next up: Cc1ccccc1N1C(N)=C(C#N)C(C#N)(C#N)C1c1ccccc1 (stereo not given)
### Response 35.6 µM
